Numbers sourced from patent US20120322725A1.

Biological target: glucagon receptor (UniProt P47871 26-477, limits assumed)
Sequence (P47871 26-477 limits assumed): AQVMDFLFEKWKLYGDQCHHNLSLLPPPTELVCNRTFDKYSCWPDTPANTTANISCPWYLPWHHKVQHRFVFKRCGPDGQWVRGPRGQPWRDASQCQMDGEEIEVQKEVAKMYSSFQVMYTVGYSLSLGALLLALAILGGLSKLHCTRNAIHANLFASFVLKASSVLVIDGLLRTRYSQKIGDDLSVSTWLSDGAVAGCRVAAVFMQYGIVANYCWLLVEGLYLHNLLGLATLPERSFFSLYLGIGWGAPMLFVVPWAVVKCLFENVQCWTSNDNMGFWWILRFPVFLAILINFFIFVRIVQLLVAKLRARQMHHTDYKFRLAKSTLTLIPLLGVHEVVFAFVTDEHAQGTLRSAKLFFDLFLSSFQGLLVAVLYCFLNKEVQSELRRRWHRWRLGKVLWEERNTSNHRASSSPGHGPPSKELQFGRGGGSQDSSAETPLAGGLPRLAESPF
Test: cell-based or functional assay
Square brackets hold non-standard residues; d marks the D form. Ends that are not written are not given here. PLA = 3-phenyllactic acid (2-hydroxy-3-phenylpropanoic acid); PhLac = O=C(O)[C@@H](O)Cc1ccccc1
Mark each entry 1 if its IC50(nM) (cAMP, inhibit 0.2 mM Glucagon) sits below 200 nM, and -1 for all others.

Task: Hello, is IC50(nM) (cAMP, inhibit 0.2 mM Glucagon) of the following binder strictly smaller than 200 nM? {PLA}-TSEYSKYLDSRRAQDFVC(PEG 1.2 kDa)WLMNT-NH2 [[PLA6, E9,C24(1.2 kDaPEG)]Glucagon(aa6-29)-NH2]
Result: 1

Task: Hello, is IC50(nM) (cAMP, inhibit 0.2 mM Glucagon) of the following binder strictly smaller than 200 nM? C(PEG 1.2 kDa)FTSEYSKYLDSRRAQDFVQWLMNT-NH2 [[C5(1.2kDaPEG), E9]Glucagon(aa5-29)-NH2]
Result: -1

Task: Hello, is IC50(nM) (cAMP, inhibit 0.2 mM Glucagon) of the following binder strictly smaller than 200 nM? C(PEG 3.4 kDa)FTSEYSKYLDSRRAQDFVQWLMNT-NH2 (also: dimer: two chains joined by 3.4 kDa PEG at Cys5) [3.4kDaPEG-dimer[C5, E9]Glucagon(aa5-29)-NH2]
Result: -1

Task: Hello, is IC50(nM) (cAMP, inhibit 0.2 mM Glucagon) of the following binder strictly smaller than 200 nM? {PLA}-TC(PEG 5 kDa)EYSKYLDSRRAQDFVQWLMNT-NH2 [[PLA6, C8(5kDaPEG), E9]Glucagon(aa6-29)-NH2]
Result: -1

Task: Hello, is IC50(nM) (cAMP, inhibit 0.2 mM Glucagon) of the following binder strictly smaller than 200 nM? C(PEG 5 kDa)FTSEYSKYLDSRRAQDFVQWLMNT-NH2 [[C5(5kDaPEG), E9]Glucagon(aa5-29)-NH2]
Result: -1

Task: Hello, is IC50(nM) (cAMP, inhibit 0.2 mM Glucagon) of the following binder strictly smaller than 200 nM? C(PEG 20 kDa)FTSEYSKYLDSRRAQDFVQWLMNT-NH2 [[C5(20kDaPEG), E9]Glucagon(aa5-29)-NH2]
Result: -1

Task: Hello, is IC50(nM) (cAMP, inhibit 0.2 mM Glucagon) of the following binder strictly smaller than 200 nM? [PhLac]TSEYC(maleimido methoxyPEG 20 kDa)KYLDSRRAQDFVQWLMNT-NH2 [[PLA6, E9, C11(20kDaPEG)]Glucagon(aa6-29)-NH2]
Result: -1

Task: Hello, is IC50(nM) (cAMP, inhibit 0.2 mM Glucagon) of the following binder strictly smaller than 200 nM? [PhLac]TSEYSKYLDSRRAQDFVC(maleimido methoxyPEG 20 kDa)WLMNT-NH2 [[PLA6, E9, C24(20kDaPEG)]Glucagon(aa6-29)-NH2]
Result: 1
